Values compiled from paper PMC2722981.

# targetSystem: PCBP1 KH1/2 (mouse, UniProt P60335 13-170)
# Sequence (P60335 13-170): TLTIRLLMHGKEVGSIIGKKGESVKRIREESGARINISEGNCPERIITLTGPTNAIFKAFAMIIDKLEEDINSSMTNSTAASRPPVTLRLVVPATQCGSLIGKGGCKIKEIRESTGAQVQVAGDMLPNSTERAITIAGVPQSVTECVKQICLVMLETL
# procedureText: filter binding
assayEndpoint: pKd
For clarity, pKd is expressed as the negative log10 of concentration in mol/L.

Exercise: What value of pKd has been reported for the following binder? R7a1 (structured_RNA) RNA: GGAGUGACCUUCUCAACUUUAUAUUCCCUUUACCCCUUCCCCCAAGGCACU
Solution: 7.37
